Below, each of the molecules is paired with its reported inhibition value.
Assay: M. tuberculosis growth inhibition, HTS (AID 1259417);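 note: bacteria grown with compound for 5 days at 37 °C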
Conditions: M. tuberculosis DsRed fluorescence growth inhibition; hits give high values; concentration not given here
Out of some 1,100 compounds screened, about 760 (69%) were called active. So high a share suggests a set chosen from earlier hits. The list shows a part of the results.
Readout Name: inhibition

Cc1scc(C(=O)NCc2ccco2)c1-c1ccccc1    2.71% (inactive)
CCOC(=O)COc1ccc2c3c(c(=O)oc2c1)CCCCC3    42.8% (active)
Cc1nc2ccccn2c1C(=O)NCc1ccc2c(c1)OCO2    99.7% (active)
Cc1ccc(-c2nnc3sc(CCc4ccccc4)nn23)cc1    100% (active)
Cc1cc(OCc2nnc(SCC(=O)OC3CCCCC3)o2)ccc1Cl    94% (active)
Cc1cc(OC(=O)C2CC2)c2c3c(c(=O)oc2c1)CCCC3    22% (inactive)
CCOC(=O)COc1cc2c3c(c(=O)oc2cc1C)CCCC3    43% (active)
COC(=O)COc1ccc(NC(=O)c2ccccc2F)cc1    77.8% (active)
CC(C)(C)n1cnc2cc(NC(=O)c3ccc(Cl)cc3)ccc21    19.9% (inactive)
COc1cccc(OC)c1C(=O)Nc1ccc(Cl)c(-c2nc3ccccc3s2)c1    72.8% (active)
COc1ccccc1C(=O)Nc1sc2c(c1C(=O)NCc1ccco1)CCC2    3.89% (inactive)
Cc1ccc(-c2nnc3sc(Cc4ccccc4)nn23)cc1    100% (active)
Nc1ccccc1NCCOc1ccccc1    98.3% (active)
COc1cc(CNC(C)c2ccccc2)cc(Cl)c1OCC(=O)Nc1ccccc1 (centres undefined)    29.9% (active)
